Data origin, for the record: patent US8802849B2

Measured inhibition at 10 µM, listed per entry.
Molecular target: Abl (Homo sapiens, UniProt P00519)
Sequence (P00519 whole entry, species assumed): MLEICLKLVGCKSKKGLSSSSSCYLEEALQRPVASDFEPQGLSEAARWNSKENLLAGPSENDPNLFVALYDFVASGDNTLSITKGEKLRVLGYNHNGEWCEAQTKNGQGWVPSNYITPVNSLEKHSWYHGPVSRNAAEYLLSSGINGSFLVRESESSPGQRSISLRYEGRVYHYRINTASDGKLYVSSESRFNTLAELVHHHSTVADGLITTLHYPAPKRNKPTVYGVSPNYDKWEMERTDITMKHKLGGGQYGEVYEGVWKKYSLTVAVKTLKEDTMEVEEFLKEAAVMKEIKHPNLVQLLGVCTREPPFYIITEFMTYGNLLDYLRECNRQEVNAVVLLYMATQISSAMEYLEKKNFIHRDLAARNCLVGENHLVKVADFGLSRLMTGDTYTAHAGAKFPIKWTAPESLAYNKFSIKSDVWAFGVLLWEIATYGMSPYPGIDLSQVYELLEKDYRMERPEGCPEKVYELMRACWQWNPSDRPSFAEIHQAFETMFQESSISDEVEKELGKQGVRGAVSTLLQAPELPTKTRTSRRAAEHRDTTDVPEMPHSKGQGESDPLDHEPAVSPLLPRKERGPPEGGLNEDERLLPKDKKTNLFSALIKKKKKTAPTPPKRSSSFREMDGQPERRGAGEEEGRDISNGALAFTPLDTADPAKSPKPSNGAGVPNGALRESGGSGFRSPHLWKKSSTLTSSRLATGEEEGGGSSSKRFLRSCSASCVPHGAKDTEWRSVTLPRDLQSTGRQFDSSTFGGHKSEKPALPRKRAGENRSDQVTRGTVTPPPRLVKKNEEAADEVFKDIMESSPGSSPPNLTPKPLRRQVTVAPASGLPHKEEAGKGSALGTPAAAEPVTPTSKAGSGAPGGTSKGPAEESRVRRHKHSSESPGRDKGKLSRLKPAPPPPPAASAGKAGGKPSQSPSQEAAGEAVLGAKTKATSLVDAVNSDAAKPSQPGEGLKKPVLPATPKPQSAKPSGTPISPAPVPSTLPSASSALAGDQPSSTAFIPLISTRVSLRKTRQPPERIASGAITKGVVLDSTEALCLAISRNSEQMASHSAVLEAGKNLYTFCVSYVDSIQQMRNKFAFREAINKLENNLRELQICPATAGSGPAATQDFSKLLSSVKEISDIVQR
Test: Abl kinase assay
Format: biochemical
Conditions: 10 μM compound; read-out: Abl percent of inhibition
Entry rule: numbers only, all in %.

Known inhibition at 10 µM results, listed for orientation:
N#Cc1cccc(Nc2nc(C3CC3)nc3sc4c(c23)CCCC4)c1
-3
Brc1cccc(Nc2nc(C3CC3)nc3sc4ccccc4c23)c1
-2
Oc1cccc(Nc2nc(C3CC3)nc3sc4ccccc4c23)c1
3

Now look at this entry.
-- ask Given the entry Fc1ccc(Nc2ncnc3sc4c(c23)CCCC4)cc1 , report its measured inhibition at 10 µM.
-- reply 4

###

// inhibition at 10 µM lookup, one value per entry
Target: MAPK-ERK1 (Homo sapiens)
Sequence (P27361 whole entry): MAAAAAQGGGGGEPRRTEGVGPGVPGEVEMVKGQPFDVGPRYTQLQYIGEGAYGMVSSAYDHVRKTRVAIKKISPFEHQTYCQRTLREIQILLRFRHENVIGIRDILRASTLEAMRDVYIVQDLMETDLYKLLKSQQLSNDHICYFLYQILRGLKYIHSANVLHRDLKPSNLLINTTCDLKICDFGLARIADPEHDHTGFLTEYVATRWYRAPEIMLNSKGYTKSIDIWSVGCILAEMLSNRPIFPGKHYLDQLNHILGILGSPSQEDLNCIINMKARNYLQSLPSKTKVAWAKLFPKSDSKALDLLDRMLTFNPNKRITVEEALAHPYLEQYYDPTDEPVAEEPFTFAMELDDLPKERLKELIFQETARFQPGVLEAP
Assay: MAPK-ERK1 kinase assay
Format: biochemical
Settings: 10 μM compound; read-out: MAPK-ERK1 percent of inhibition
Note: unit % is implicit; provide only the numeric part.

Brc1cccc(Nc2nc(C3CC3)nc3sc4ccccc4c23)c1
-6
N#Cc1cccc(Nc2nc(C3CC3)nc3sc4c(c23)CCCC4)c1
-4

Consider now this further compound.
-- ask Which inhibition at 10 µM value belongs to Fc1cccc(Nc2nc(C3CC3)nc3sc4ccccc4c23)c1 ?
-- reply 6

###

measured_property: melting point (°C)
# output: bare number, implied unit °C

Consider the reported melting point for these molecules:
Fc1cccc(Nc2ncnc3sc4c(c23)CCCC4)c1
210.6
Fc1cccc(Nc2ncnc3sc4ccccc4c23)c1
171
COc1cccc(Nc2nc(C3CC3)nc3sc4c(c23)CCCC4)c1
186.7
Oc1cccc(Nc2nc(C3CC3)nc3sc4c(c23)CCCC4)c1
239.7

-- ask Entry Nc1cccc(Nc2nc(C3CC3)nc3sc4c(c23)CCCC4)c1 has what melting point?
-- reply 185.9

-- ask Need melting point, item Brc1cccc(Nc2ncnc3sc4c(c23)CCCC4)c1
-- reply 169

-- ask Recorded melting point for O=[N+]([O-])c1cccc(Nc2nc(C3CC3)nc3sc4c(c23)CCCC4)c1 , please?
-- reply 211.7

-- ask melting point lookup needed for Nc1ccc(Nc2ncnc3sc4c(c23)CCCC4)cc1 , thanks.
-- reply 203.1

-- ask Reported melting point, molecule Fc1cccc(Nc2nc(C3CC3)nc3sc4ccccc4c23)c1 : ____
-- reply 193

-- ask Query: melting point; subject: Brc1cccc(Nc2ncnc3sc4ccccc4c23)c1
-- reply 160

-- ask Using the record for Fc1ccccc1Nc1ncnc2sc3c(c12)CCCC3 , report its melting point.
-- reply 160.7

-- ask Name the recorded melting point for N#Cc1cccc(Nc2nc(C3CC3)nc3sc4c(c23)CCCC4)c1 .
-- reply 176.3

-- ask Recorded melting point of FC(F)(F)c1cccc(Nc2nc(C3CC3)nc3sc4c(c23)CCCC4)c1 , please.
-- reply 204.8

-- ask Looking for the measured melting point of Clc1ccc(Nc2ncnc3sc4c(c23)CCCC4)cc1 , can you help?
-- reply 191.2

-- ask So what's the measured melting point for this one? Brc1cccc(Nc2nc(C3CC3)nc3sc4ccccc4c23)c1
-- reply 180

###

Molecular target: InsR (Homo sapiens, UniProt P06213)
Sequence (P06213 28-1382, species assumed): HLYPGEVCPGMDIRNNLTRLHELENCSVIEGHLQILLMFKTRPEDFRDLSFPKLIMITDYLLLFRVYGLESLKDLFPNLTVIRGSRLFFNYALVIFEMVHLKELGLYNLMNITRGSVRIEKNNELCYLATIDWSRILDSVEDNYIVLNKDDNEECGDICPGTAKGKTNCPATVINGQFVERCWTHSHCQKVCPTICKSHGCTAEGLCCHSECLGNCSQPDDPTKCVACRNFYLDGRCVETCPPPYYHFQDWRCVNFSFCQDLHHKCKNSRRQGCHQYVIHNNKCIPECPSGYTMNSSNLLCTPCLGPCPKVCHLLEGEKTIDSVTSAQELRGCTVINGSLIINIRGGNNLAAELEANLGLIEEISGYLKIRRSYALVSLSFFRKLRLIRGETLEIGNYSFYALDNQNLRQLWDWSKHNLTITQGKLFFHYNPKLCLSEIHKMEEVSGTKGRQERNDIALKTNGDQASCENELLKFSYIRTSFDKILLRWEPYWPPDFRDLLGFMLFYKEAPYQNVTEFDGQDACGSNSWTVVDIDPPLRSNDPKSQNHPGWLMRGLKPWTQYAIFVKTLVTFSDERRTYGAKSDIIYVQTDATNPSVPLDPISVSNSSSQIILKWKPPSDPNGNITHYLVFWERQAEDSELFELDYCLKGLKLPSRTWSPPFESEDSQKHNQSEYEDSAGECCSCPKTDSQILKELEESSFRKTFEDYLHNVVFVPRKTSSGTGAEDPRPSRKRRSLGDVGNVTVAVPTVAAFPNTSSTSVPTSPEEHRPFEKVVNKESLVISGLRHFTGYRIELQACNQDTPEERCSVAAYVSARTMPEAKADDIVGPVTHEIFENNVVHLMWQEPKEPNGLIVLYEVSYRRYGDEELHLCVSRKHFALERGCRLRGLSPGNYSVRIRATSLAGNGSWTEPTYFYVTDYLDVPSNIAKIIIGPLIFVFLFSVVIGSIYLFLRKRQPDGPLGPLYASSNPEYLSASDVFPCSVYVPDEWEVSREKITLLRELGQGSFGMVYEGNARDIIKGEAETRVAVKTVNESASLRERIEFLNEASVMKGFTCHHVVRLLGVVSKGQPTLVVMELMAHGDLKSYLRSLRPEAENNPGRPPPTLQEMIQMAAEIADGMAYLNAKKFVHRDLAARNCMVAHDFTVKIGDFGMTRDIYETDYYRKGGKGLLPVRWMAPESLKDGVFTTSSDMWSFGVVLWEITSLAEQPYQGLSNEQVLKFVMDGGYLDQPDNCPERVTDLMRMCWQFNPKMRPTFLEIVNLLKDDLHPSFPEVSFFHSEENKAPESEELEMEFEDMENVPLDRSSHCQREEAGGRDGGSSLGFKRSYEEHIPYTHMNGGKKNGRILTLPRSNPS
Test: InsR kinase assay
Type: biochemical
Conditions: 10 μM compound; read-out: InsR percent of inhibition
Description: General description of the kinase assays: the kinase activity was assayed in 96-well microtiter plates at a final compound concentration of 10 μM in a total volume of 50 μl. Compounds were dissolved in 100% DMSO to prepare a 10 mM stock solution and than diluted with buffer to reach a 10 μM (or the required) final concentration. The kinase concentration was used to yield 10% ATP turn over. […] The radioactivity was counted on a Microbeta microplate counter.
Recorded measurements of inhibition at 10 µM, one per entry

Reference set (2 entries):
Fc1cccc(Nc2nc(C3CC3)nc3sc4ccccc4c23)c1 [Compound 16]
2%
Nc1ccc(Nc2ncnc3sc4c(c23)CCCC4)cc1 [Compound 8]
36%

-- ask Consider the molecule Oc1cccc(Nc2nc(C3CC3)nc3sc4ccccc4c23)c1 [Compound 19] and give its measured inhibition at 10 µM.
-- reply 11%
